biological target: human norepinephrine transporter (hNET) (Homo sapiens, UniProt P23975); construct: expressed in transfected cells; host or cells: HEK-293, stably transfected; experiment: Radioligand binding to cloned hNET, [3H]nisoxetine, HEK-293 cell membranes; conditions: Geometric Mean ± SEM; HCl salts; read-out: Equilibrium Dissociation Constant (KD) for Transporter Binding, hNET (N)
Sequence (P23975 whole entry): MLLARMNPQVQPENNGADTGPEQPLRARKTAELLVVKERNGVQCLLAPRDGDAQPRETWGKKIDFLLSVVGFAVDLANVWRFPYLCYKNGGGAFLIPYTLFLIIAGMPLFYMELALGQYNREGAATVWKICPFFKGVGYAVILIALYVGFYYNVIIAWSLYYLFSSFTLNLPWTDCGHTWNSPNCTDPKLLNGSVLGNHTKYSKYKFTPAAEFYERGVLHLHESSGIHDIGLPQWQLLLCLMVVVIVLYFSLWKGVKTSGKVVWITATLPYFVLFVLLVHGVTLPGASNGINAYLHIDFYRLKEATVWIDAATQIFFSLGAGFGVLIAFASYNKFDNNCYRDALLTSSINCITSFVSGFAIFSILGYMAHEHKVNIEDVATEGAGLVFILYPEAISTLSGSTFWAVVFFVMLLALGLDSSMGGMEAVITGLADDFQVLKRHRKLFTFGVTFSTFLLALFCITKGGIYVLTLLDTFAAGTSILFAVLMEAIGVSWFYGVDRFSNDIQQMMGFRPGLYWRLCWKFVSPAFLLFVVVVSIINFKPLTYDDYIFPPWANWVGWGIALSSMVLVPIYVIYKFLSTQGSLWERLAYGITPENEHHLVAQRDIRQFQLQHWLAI
# key: entry, value: Kd
measured.quantity: Kd

[[record]]
structure_notation = "CNC[C@H](c1ccc2ccccc2c1)[C@@H](N)c1ccccc1"
measured_quantity = "Kd"
recorded_result = "78 nM"

[[record]]
structure_notation = "CN1CN[C@H](c2ccccc2)[C@@H](c2ccc3ccccc3c2)C1"
measured_quantity = "Kd"
recorded_result = "13 nM"

[[record]]
structure_notation = "CNC[C@H](c1ccc2ccccc2c1)[C@H](OC)c1ccccc1"
measured_quantity = "Kd"
recorded_result = "1.4 nM"

[[record]]
structure_notation = "CNC[C@H](c1ccc2ccccc2c1)[C@H](OCCCCO[C@H](c1ccccc1)[C@H](CNC)c1ccc2ccccc2c1)c1ccccc1"
measured_quantity = "Kd"
recorded_result = "259 nM"

[[record]]
structure_notation = "CN1CO[C@@H](c2ccccc2)[C@H](c2ccc3ccccc3c2)C1"
measured_quantity = "Kd"
recorded_result = "460 nM"

[[record]]
structure_notation = "CNC[C@H](c1ccc2ccccc2c1)[C@@H](N=[N+]=[N-])c1ccccc1"
measured_quantity = "Kd"
recorded_result = "64 nM"


###

biological target: hERG (Homo sapiens); test: hERG assay: block of rubidium ion (Rb+) efflux from cells expressing hERG
Checkbox rule: IC50 lower than 50 µM = True; IC50 not lower than 50 µM = False.

[[record]]
compound = "CNC[C@H](c1ccc2ccccc2c1)[C@@H](N=[N+]=[N-])c1ccccc1 [MCJ001-N3-RS]"
group = "True"

[[record]]
compound = "CNC[C@H](c1ccc2ccccc2c1)[C@H](O)c1ccccc1 [PRC200-SS, reference compound]"
group = "True"

[[record]]
compound = "CNC[C@H](c1ccc2ccccc2c1)[C@@H](F)c1ccccc1 [MCJ001-F-RS]"
group = "False"

[[record]]
compound = "CNC[C@H](c1ccc2ccccc2c1)[C@H](F)c1ccccc1 [MCJ001-F-SS]"
group = "False"

[[record]]
compound = "CNC[C@@H](c1ccc2ccccc2c1)[C@H](F)c1ccccc1 [MCJ001-F-SR]"
group = "False"

[[record]]
compound = "CNC[C@H](c1ccc2ccccc2c1)[C@H](Cl)c1ccccc1 [MCJ001-Cl-SS]"
group = "True"

[[record]]
compound = "CN(C)C[C@H](c1ccc2ccccc2c1)[C@H](N)c1ccccc1 [MCJ002-NH2-SS]"
group = "False"


###

test system: hSERT, hNET, hDAT; experiment: Human transporter binding: rank order and range of potency over the three transporters; conditions: from KD values
measured.quantity: Potency (rank-order of potency of binding; S = hSERT, N = hNET, D = hDAT)

[[record]]
compound = "CNC[C@@H](c1ccc2ccccc2c1)[C@H](N=[N+]=[N-])c1ccccc1"
experimental_target = "hSERT, hNET, hDAT"
recorded_result = "S > N > D"

[[record]]
compound = "CCOc1ccccc1OC(c1ccccc1)C1CNCCO1 (stereo not drawn) [Reboxetine, reference compound]"
experimental_target = "hSERT, hNET, hDAT"
recorded_result = "N > S > D"

[[record]]
compound = "CNC[C@@H](c1ccc2ccccc2c1)[C@@H](Cl)c1ccccc1"
experimental_target = "hSERT, hNET, hDAT"
recorded_result = "S > N > D"

[[record]]
compound = "CNC[C@H](c1ccc2ccccc2c1)[C@@H](N=[N+]=[N-])c1ccccc1"
experimental_target = "hSERT, hNET, hDAT"
recorded_result = "N > S > D"

[[record]]
compound = "C[N+]1(C)CN[C@H](c2ccccc2)[C@@H](c2ccc3ccccc3c2)C1.[Cl-]"
experimental_target = "hSERT, hNET, hDAT"
recorded_result = "S > D > N"

[[record]]
compound = "CNC[C@H](c1ccc2ccccc2c1)[C@@H](Cl)c1ccccc1"
experimental_target = "hSERT, hNET, hDAT"
recorded_result = "S > D > N"

[[record]]
compound = "CNCC[C@H](Oc1cccc2ccccc12)c1cccs1 [Duloxetine, reference compound]"
experimental_target = "hSERT, hNET, hDAT"
recorded_result = "S > N > D"

[[record]]
compound = "CNC[C@H](c1ccc2ccccc2c1)[C@H](F)c1ccccc1"
experimental_target = "hSERT, hNET, hDAT"
recorded_result = "S > N > D"

[[record]]
compound = "CN(C)CCCN1c2ccccc2CCc2ccccc21 [Imipramine, reference compound]"
experimental_target = "hSERT, hNET, hDAT"
recorded_result = "S > N > D"


###

# key: entry, value: Ki
target: rat dopamine transporter, synaptosomal preparations (Rattus norvegicus); construct: and striatal tissues for transport of dopamine; from tissue; host or cells: rat striatum synaptosomes (male Sprague-Dawley); assay: Inhibition of [3H]DA reuptake in rat brain synaptosomes (striatum); type: biochemical; settings: Geometric Mean ± SEM; rat brain synaptosomes; read-out: Inhibitor Constant (Ki), DA transport
Sequence (P23977 whole entry): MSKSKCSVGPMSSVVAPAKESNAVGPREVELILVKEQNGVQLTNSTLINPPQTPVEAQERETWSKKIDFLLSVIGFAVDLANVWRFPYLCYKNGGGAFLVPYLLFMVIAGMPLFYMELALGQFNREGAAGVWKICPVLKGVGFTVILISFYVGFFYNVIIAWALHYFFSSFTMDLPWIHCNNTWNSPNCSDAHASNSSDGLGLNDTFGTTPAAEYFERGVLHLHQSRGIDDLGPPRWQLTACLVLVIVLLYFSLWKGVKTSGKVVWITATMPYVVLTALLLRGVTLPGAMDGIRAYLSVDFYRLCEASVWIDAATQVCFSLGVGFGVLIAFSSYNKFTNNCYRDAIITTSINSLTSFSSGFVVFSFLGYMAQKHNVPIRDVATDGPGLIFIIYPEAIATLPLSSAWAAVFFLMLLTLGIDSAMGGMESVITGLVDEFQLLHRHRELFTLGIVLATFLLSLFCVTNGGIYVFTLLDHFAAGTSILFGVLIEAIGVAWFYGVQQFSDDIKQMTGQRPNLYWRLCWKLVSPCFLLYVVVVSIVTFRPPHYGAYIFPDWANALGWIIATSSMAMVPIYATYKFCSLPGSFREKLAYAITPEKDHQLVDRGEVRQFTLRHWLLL
measured.quantity: Ki (nM)

[[record]]
compound = "CNC[C@@H](c1ccc2ccccc2c1)[C@H](F)c1ccccc1"
experimental_target = "rat dopamine transporter, synaptosomal preparations (Rattus norvegicus)"
measured_quantity = "Ki"
recorded_result = 130

[[record]]
compound = "CNC[C@@H](c1ccc2ccccc2c1)[C@H](N=[N+]=[N-])c1ccccc1"
experimental_target = "rat dopamine transporter, synaptosomal preparations (Rattus norvegicus)"
measured_quantity = "Ki"
recorded_result = 2000

[[record]]
compound = "CNCC(c1ccc2ccccc2c1)C(OC)c1ccccc1 (racemic) [MCJ001-OMe-(±)-SR]"
experimental_target = "rat dopamine transporter, synaptosomal preparations (Rattus norvegicus)"
measured_quantity = "Ki"
recorded_result = 1030

[[record]]
compound = "CNCC(c1ccc2ccccc2c1)C(F)c1ccccc1 (racemic) [MCJ001-F-(±)-RR]"
experimental_target = "rat dopamine transporter, synaptosomal preparations (Rattus norvegicus)"
measured_quantity = "Ki"
recorded_result = 250

[[record]]
compound = "CNC[C@H](c1ccc2ccccc2c1)[C@H](OC)c1ccccc1"
experimental_target = "rat dopamine transporter, synaptosomal preparations (Rattus norvegicus)"
measured_quantity = "Ki"
recorded_result = 46

[[record]]
compound = "CNC[C@H](c1ccc2ccccc2c1)[C@@H](N=[N+]=[N-])c1ccccc1"
experimental_target = "rat dopamine transporter, synaptosomal preparations (Rattus norvegicus)"
measured_quantity = "Ki"
recorded_result = 270

[[record]]
compound = "CNC[C@H](c1ccc2ccccc2c1)[C@H](OCCCCCO[C@H](c1ccccc1)[C@H](CNC)c1ccc2ccccc2c1)c1ccccc1"
experimental_target = "rat dopamine transporter, synaptosomal preparations (Rattus norvegicus)"
measured_quantity = "Ki"
recorded_result = 800


###

target: rat norepinephrine transport, synaptosomal preparations (Rattus norvegicus); construct: from tissue; host or cells: rat occipital cortex synaptosomes (male Sprague-Dawley); assay: Inhibition of [3H]NE reuptake in rat brain synaptosomes (occipital cortex); type: biochemical; details: Geometric Mean ± SEM; rat brain synaptosomes; read-out: Inhibitor Constant (Ki), NE transport
Sequence (Q63380 1-617): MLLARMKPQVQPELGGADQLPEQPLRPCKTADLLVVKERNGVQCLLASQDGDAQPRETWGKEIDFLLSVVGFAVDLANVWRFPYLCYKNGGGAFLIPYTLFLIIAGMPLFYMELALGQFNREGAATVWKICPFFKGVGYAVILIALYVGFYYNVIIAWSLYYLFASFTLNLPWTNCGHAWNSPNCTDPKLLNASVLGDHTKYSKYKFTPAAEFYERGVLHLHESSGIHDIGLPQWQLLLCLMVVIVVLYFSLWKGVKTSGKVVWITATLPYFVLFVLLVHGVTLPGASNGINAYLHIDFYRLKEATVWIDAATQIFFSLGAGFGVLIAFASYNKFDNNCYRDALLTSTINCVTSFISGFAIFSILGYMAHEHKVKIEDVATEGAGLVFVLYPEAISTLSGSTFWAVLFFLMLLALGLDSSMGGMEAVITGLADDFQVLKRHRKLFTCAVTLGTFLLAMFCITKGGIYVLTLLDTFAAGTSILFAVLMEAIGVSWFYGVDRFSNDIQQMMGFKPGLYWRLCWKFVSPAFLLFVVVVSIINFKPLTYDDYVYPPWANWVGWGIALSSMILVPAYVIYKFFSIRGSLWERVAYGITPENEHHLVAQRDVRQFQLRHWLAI
pKi: −log10 of the molar value.
# key: entry, value: pKi
measured.quantity: pKi

[[record]]
compound = "CNC[C@H](c1ccc2ccccc2c1)[C@@H](N=[N+]=[N-])c1ccccc1"
measured_quantity = "pKi"
recorded_result = 7.25

[[record]]
compound = "CNC[C@@H](c1ccc2ccccc2c1)[C@H](N=[N+]=[N-])c1ccccc1"
measured_quantity = "pKi"
recorded_result = 6.60

[[record]]
compound = "CNCC(c1ccc2ccccc2c1)C(OC)c1ccccc1 (racemic) [MCJ001-OMe-(±)-SR]"
measured_quantity = "pKi"
recorded_result = 6.68

[[record]]
compound = "CNC[C@H](c1ccc2ccccc2c1)[C@H](OCCCCCO[C@H](c1ccccc1)[C@H](CNC)c1ccc2ccccc2c1)c1ccccc1"
measured_quantity = "pKi"
recorded_result = 6.70

[[record]]
compound = "CNC[C@@H](c1ccc2ccccc2c1)[C@H](F)c1ccccc1"
measured_quantity = "pKi"
recorded_result = 6.96

[[record]]
compound = "CNC[C@H](c1ccc2ccccc2c1)[C@H](OC)c1ccccc1"
measured_quantity = "pKi"
recorded_result = 7.62


###

target: hERG (Homo sapiens, UniProt Q12809); assay: hERG assay: block of rubidium ion (Rb+) efflux from cells expressing hERG; conditions: read-out: hERG (IC50); Rb+ efflux, eight doses in duplicate
Sequence (Q12809 whole entry): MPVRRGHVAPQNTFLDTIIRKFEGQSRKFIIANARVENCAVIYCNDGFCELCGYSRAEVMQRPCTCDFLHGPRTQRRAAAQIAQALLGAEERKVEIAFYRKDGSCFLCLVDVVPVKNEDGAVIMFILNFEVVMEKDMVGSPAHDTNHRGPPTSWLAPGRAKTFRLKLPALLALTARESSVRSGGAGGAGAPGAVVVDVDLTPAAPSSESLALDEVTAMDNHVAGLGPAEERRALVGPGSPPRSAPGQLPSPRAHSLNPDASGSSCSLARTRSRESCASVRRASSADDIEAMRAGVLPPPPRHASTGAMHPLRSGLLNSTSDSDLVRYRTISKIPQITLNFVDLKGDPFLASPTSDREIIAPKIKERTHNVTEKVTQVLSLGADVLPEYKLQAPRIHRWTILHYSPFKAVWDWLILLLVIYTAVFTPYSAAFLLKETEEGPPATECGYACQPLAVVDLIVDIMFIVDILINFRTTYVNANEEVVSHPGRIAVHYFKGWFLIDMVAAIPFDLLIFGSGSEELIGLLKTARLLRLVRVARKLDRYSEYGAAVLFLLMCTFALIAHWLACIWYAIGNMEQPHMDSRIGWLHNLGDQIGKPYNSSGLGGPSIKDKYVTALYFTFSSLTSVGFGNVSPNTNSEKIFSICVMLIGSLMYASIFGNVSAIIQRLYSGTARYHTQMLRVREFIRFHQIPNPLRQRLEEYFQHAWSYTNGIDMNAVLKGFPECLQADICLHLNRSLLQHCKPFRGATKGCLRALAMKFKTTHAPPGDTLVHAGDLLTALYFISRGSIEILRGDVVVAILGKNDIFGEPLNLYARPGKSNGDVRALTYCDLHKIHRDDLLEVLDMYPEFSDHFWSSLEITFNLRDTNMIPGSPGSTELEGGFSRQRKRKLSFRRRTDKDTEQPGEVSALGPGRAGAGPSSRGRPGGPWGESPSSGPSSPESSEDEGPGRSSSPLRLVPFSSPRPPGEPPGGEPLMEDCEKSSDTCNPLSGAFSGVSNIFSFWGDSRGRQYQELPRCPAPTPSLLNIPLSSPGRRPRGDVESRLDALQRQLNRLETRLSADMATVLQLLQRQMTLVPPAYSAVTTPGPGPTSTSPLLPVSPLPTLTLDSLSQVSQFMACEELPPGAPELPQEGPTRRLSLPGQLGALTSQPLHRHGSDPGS
pIC50: −log10 of the molar value.
measured.quantity: pIC50

[[record]]
structure_notation = "CNC[C@H](c1ccc2ccccc2c1)[C@H](OC(C)=O)c1ccccc1"
recorded_result = 4.10


###

# key: entry, value: log10 of Ki
Target: rat serotonin transporter, synaptosomal preparations (Rattus norvegicus, UniProt P31652)
Construct: from tissue; host or cells: rat frontal cortex synaptosomes (male Sprague-Dawley)
Sequence (P31652 whole entry): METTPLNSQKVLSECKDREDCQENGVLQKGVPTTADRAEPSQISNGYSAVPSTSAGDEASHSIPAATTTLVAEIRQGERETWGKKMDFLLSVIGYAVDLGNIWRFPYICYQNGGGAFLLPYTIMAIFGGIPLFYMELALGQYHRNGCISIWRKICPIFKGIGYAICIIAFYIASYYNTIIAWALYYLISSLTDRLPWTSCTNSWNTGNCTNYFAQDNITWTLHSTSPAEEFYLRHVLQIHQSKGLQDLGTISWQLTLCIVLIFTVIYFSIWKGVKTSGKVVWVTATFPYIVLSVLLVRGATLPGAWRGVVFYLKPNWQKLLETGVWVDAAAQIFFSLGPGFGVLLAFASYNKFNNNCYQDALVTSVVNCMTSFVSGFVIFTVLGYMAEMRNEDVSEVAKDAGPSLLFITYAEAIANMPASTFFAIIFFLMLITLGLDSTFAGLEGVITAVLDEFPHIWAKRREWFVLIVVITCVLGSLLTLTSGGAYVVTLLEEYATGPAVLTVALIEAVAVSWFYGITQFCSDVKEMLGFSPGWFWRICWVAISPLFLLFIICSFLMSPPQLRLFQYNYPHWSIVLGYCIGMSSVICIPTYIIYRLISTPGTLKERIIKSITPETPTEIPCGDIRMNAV
Assay: Inhibition of [3H]5-HT reuptake in rat brain synaptosomes (frontal cortex)
Type: biochemical
Details: Geometric Mean ± SEM; rat brain synaptosomes; read-out: Inhibitor Constant (Ki), 5HT transport
Protocol: The dissected tissues were separately homogenized in 20 volumes (cortical) or 40 volumes (striatal) of ice-cold, oxygenated HEPES buffer 0.32 M sucrose containing 11 mM glucose (pH 7.4) in a glass Potter-Elvehjem homogenizer with Teflon® pestle (8 strokes, 900 rpm). The homogenates were centrifuged at 1,000×g for 10 minutes. […] The synaptosomal protein concentration was determined by using the BCA assay (Pierce Biotechnology Inc, Rockford, Ill.), according to the manufacturer's instructions. […]
measured.quantity: log10 of Ki (log10 of the value in nM)

[[record]]
compound = "CNCC(c1ccc2ccccc2c1)C(OC)c1ccccc1 (racemic) [MCJ001-OMe-(±)-SR]"
experimental_target = "rat serotonin transporter, synaptosomal preparations (Rattus norvegicus, UniProt P31652)"
measured_quantity = "log10 of Ki"
recorded_result = 1.95

[[record]]
compound = "CNC[C@H](c1ccc2ccccc2c1)[C@H](OC)c1ccccc1 [MCJ001-OMe-SS]"
experimental_target = "rat serotonin transporter, synaptosomal preparations (Rattus norvegicus, UniProt P31652)"
measured_quantity = "log10 of Ki"
recorded_result = 1.11

[[record]]
compound = "CNC[C@H](c1ccc2ccccc2c1)[C@@H](N=[N+]=[N-])c1ccccc1 [MCJ001-N3-RS]"
experimental_target = "rat serotonin transporter, synaptosomal preparations (Rattus norvegicus, UniProt P31652)"
measured_quantity = "log10 of Ki"
recorded_result = 1.94

[[record]]
compound = "CNC[C@H](c1ccc2ccccc2c1)[C@H](OCCCCCO[C@H](c1ccccc1)[C@H](CNC)c1ccc2ccccc2c1)c1ccccc1 [MCJ001-Dimer5-SS]"
experimental_target = "rat serotonin transporter, synaptosomal preparations (Rattus norvegicus, UniProt P31652)"
measured_quantity = "log10 of Ki"
recorded_result = 2.18

[[record]]
compound = "CNC[C@@H](c1ccc2ccccc2c1)[C@H](N=[N+]=[N-])c1ccccc1 [MCJ001-N3-SR]"
experimental_target = "rat serotonin transporter, synaptosomal preparations (Rattus norvegicus, UniProt P31652)"
measured_quantity = "log10 of Ki"
recorded_result = 2.81

